- Tested on: LOC_OS01G14860-cb001;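 note: purified Escherichia coli-expressed rice kinase domain construct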
- ASSAY METHOD TEXT: thermal shift delta Tm vs DMSO control; higher = stronger stabilization (binding)
- CONDITION CONTEXT: 12.5 µM; protein concentration 2 µM
Structures can show the parent of a compound that is named as a salt.
Tick Fulfilled if thermal shift delta Tm is 2 °C or greater. Tick Not fulfilled if thermal shift delta Tm is less than 2 °C.

CN1CCCN(C(=O)c2cccc(-c3ccc(/C=C4/C(=O)Nc5ccc(Cl)cc54)o3)c2)CC1 :: Fulfilled
CS(=O)(=O)c1cccc(CNc2nc(Nc3ccc4c(c3)CCC(=O)N4)ncc2C(F)(F)F)c1 :: Fulfilled
C[C@H]1CNCCCN1S(=O)(=O)c1cccc2cncc(F)c12 [Ripasudil (K-115) hydrochloride dihydrate] :: Not fulfilled
COc1ncc(-c2ccc3nccc(-c4ccnnc4)c3c2)cc1NS(=O)(=O)c1ccc(F)cc1F :: Not fulfilled
CC(=O)c1c(C)c2cnc(Nc3ccc(N4CCNCC4)cn3)nc2n(C2CCCC2)c1=O :: Fulfilled
C=CC(=O)N[C@H]1CCOC[C@H]1Nc1ncc2cc(-c3c(Cl)c(OC)cc(OC)c3Cl)ccc2n1 :: Not fulfilled
Cc1c[nH]c(/C=C2\C(=O)Nc3ccccc32)c1CCC(=O)O :: Not fulfilled
COc1cc(OC)c(/C=C/S(=O)(=O)Cc2ccc(OC)c(NCC(=O)O)c2)c(OC)c1 :: Not fulfilled
O=c1cc(N2CCOCC2)oc2c(-c3ccccc3)cccc12 :: Not fulfilled
Cc1cccc(Nc2nc(NC3CCCCC3N)ncc2C(N)=O)c1 (centres undefined) :: Not fulfilled
Cc1cc(NC(=O)c2cccc(NC(=O)/C=C/CN(C)C)c2)ccc1Nc1nccc(-c2cccnc2)n1 :: Not fulfilled
COc1ccc(-c2cc3c(C)nc(N)nc3n([C@H]3CC[C@H](OCCO)CC3)c2=O)cn1 :: Not fulfilled
COc1cc2ncnc(Nc3ccc(F)c(Cl)c3)c2cc1OCCCN1CCOCC1 [Gefitinib (ZD1839)] :: Not fulfilled
O=c1c(-c2ccc(O)cc2)coc2cc(O)cc(O)c12 :: Not fulfilled

The origin of these recorded values is the supplement of paper PMC9694430.
